Attribution: paper PMC12777986

TARGET_OR_TEST_SYSTEM: CYP3A4 (Homo sapiens)
Sequence (P08684 whole entry): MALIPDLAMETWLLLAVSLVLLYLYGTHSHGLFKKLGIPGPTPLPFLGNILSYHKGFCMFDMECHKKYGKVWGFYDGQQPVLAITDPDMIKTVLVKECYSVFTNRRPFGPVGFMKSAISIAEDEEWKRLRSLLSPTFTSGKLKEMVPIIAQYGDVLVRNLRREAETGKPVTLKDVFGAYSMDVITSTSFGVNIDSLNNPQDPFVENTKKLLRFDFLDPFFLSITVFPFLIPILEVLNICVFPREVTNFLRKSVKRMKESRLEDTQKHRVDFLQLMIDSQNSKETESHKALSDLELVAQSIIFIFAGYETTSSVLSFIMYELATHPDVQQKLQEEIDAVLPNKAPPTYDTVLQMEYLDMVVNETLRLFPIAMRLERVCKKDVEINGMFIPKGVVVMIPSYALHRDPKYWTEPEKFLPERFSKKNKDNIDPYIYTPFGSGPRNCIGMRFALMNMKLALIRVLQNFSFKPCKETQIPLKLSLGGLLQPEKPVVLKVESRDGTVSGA
PROTOCOL_DESCRIPTION: Human liver microsome CYP inhibition assay, CYP3A4
Format: biochemical
EXPERIMENTAL_SETUP: human liver microsomes
VALUE_TYPE: inhibition at 5 min, 50 µM (%)
Give the value in % but do not write % after it.

Challenge: Field request: inhibition at 5 min, 50 µM | item: CC(=O)N1CCC(C(=O)N2CCN3C(=O)c4cc(-c5ccccc5)ccc4NC(=O)C3C2)CC1 (stereo not shown)
Response given: 22.5

* * *

TARGET_OR_TEST_SYSTEM: CYP2C19 (Homo sapiens, UniProt P33261)
Sequence (P33261 whole entry): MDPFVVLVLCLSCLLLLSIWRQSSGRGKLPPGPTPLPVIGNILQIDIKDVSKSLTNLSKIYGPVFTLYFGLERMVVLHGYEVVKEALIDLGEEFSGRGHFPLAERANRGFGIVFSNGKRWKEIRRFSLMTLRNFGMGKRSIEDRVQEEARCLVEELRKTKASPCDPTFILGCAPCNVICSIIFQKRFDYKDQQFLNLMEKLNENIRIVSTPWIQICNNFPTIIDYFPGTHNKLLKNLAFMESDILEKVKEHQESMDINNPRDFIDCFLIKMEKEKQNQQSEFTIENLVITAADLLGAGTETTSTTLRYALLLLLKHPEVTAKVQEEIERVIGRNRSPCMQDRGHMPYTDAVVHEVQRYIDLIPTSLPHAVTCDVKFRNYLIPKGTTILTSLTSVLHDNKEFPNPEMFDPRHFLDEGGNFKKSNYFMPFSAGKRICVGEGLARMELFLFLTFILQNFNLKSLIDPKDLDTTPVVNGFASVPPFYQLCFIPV
PROTOCOL_DESCRIPTION: Human liver microsome CYP inhibition assay, CYP2C19
Format: biochemical
EXPERIMENTAL_SETUP: human liver microsomes
VALUE_TYPE: inhibition at 5 min, 50 µM (%)
Record the value in %, omitting the unit from your answer.

Challenge: Reported inhibition at 5 min, 50 µM for CC(=O)N1CCC(C(=O)N2CCN3C(=O)c4cc(-c5ccccc5)ccc4NC(=O)C3C2)CC1 (stereo not shown) : what is it?
Response given: 19.4
